inhibition: recorded values
# TESTED_SYSTEM: Alpha-mannosidase (Canavalia ensiformis) (UniProt C0HJB3)
# Sequence (whole entry): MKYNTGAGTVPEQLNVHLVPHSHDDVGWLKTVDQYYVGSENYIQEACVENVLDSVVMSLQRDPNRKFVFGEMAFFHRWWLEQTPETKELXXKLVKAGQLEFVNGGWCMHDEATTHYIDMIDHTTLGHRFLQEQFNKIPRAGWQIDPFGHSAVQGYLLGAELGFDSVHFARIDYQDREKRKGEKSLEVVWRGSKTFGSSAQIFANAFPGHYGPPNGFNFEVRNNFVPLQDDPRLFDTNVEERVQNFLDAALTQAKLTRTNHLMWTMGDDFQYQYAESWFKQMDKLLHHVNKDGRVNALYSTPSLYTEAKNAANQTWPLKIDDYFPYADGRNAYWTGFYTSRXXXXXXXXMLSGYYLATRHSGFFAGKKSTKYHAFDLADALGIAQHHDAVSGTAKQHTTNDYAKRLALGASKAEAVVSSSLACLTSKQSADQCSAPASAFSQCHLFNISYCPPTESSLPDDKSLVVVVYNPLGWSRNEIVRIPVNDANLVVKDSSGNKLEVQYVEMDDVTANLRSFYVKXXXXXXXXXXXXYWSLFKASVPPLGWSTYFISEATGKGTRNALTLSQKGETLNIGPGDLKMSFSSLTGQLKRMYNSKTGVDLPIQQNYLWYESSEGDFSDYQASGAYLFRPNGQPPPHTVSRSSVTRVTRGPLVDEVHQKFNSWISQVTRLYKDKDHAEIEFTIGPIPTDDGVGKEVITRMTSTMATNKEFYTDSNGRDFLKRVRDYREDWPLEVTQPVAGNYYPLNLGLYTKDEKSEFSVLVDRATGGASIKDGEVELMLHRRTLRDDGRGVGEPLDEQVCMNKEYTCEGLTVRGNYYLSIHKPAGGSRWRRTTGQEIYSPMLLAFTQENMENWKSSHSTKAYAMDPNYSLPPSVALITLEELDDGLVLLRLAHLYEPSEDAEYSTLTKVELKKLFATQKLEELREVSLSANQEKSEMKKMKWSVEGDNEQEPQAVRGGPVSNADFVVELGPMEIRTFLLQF
# PROTOCOL_DESCRIPTION: Inhibition of jack bean alpha-mannosidase assessed as reduction of p-nitrophenol release using p-nitrophenyl glycoside as substrate at 1000 uM by spectrophotometric analysis relative to control
Output spec: scalar in %, unitless text.

Recorded inhibition, per entry:
INSERT INTO assay_data (structure, tested_system, reported_result) VALUES
  ('OC[C@H]1N[C@H]([C@H](O)CCCCCCc2ccc(Cl)cc2)[C@@H](O)[C@@H]1O', 'Alpha-mannosidase (Canavalia ensiformis) (UniProt C0HJB3)', 4.5),
  ('Cl.OC[C@@H]1N[C@@H]([C@@H](O)CCCCCCc2ccc(F)c(F)c2)[C@H](O)[C@H]1O', 'Alpha-mannosidase (Canavalia ensiformis) (UniProt C0HJB3)', 13.3),
  ('Cl.OC[C@H]1N[C@H](CCCCCCCc2ccc(F)cc2)[C@@H](O)[C@@H]1O', 'Alpha-mannosidase (Canavalia ensiformis) (UniProt C0HJB3)', 22.7),
  ('CC(C)(C)c1ccc(CCCCCC[C@H](O)[C@@H]2N[C@@H](CO)[C@H](O)[C@H]2O)cc1', 'Alpha-mannosidase (Canavalia ensiformis) (UniProt C0HJB3)', 0.8);

Now turn to the next molecule.
The molecule identified as `Cl.OC[C@H]1N[C@H]([C@@H](O)CCCCCCc2ccc(Cl)cc2)[C@@H](O)[C@@H]1O` registered its inhibition at 0
